procedureDetails: qHTS Assay for Lipid Storage Modulators in Drosophila S3 Cells
conditionDescription: BODIPY lipid droplet fluorescence, 18-24 h, cells fed with added oleic acid; series mostly up to 46.1 µM
Among all 320,000 compounds or so, about 2,100 (0.66%) were called active. Roughly 53% stayed inconclusive and do not appear here. Calls come from the whole dose curve; as a rule, active = well fitted inhibition curve with a large enough effect in the signal ratio, with a control signal flat (not every such curve was filed as active); inconclusive = small, poorly fitted or top-dose-only effect, or effect the other way, or a change in a side signal; inactive = flat fitted curve, though single readings scatter; the % refers to the signal ratio. Only a selection was taken, and actives are over-represented in it overall.
Labels: active, inactive

molecule	qualitativeLabel
CCN1C(=O)[C@H]2[C@@H](c3ccc(-c4ccc(OC)cc4)cc3)N[C@@](CC(C)C)(C(=O)OC)[C@H]2C1=O	inactive
Cc1cc(C)n(-c2cc(N3CCOCC3)ncn2)n1	inactive
CCOC(=O)N1CCN(C(=O)COc2ccc(S(=O)(=O)NC(C)C)cc2)CC1	inactive
Cc1ccc(C)c(OCCOCCN2CCOCC2)c1	active
Cc1cccc(OCCOCCN2CCOCC2)c1C	inactive
Cc1cc(C(=O)Nc2ccccc2C(=O)O)ccc1NC(=O)COc1cccc([N+](=O)[O-])c1	inactive
O=C(C1=C(O)C(=O)N(CCc2ccccc2)C1c1cccs1)c1ccco1 (stereo not given)	inactive
COc1cc(S(=O)(=O)N2CCC(c3nc4ccccc4s3)CC2)ccc1S(=O)(=O)N1CC(C)CC(C)C1 (stereo not given)	inactive
Cc1cc(C)c(C)c(OCCN2CCOCC2)c1	inactive
CCN1C(=O)[C@H]2[C@@H](c3ccc(SC4CCCCC4)cc3)N[C@@](CC(C)C)(C(=O)OC)[C@H]2C1=O	active

----------
procedureDetails: qHTS Assay for Lipid Storage Modulators in Drosophila S3 Cells;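 for cell number change: cells counted by Cell Tracker Red CMTPX staining in the red channel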
conditionDescription: BODIPY lipid droplet fluorescence, 18-24 h, cells fed with added oleic acid; measured here: cell count max response
Screen size: about 320,000 compounds; about 2,100 (0.66%) were called active. Another 53% or so got no clear call; they are omitted. What follows is part of a selection rich in actives, with near analogues and random picks from the rest.
Listed here are compounds together with their documented cell number change.

molSmiles	cell number change, %
Cc1onc(C(=O)N2CCN(C(c3ccccc3)c3ccccc3)CC2)c1[N+](=O)[O-]	3.65
CCCCN(CC)C(=O)c1oc2ccc(S(=O)(=O)N3CCCC3)cc2c1C	-20.1
Cc1c(C(=O)N(C)Cc2ccccc2)oc2ccc(S(=O)(=O)N3CCCC3)cc12	-25.2
Cc1c(C(=O)NCc2ccc3c(c2)OCO3)oc2ccc(S(=O)(=O)N3CCCC3)cc12	-21.4
O=C(NCCNc1nccc(C(F)(F)F)n1)c1cccc(C(F)(F)F)c1	8.97

----------
procedureDetails: qHTS Assay for Lipid Storage Modulators in Drosophila S3 Cells
conditionDescription: BODIPY lipid droplet fluorescence, 18-24 h, cells fed with added oleic acid; series mostly up to 46.1 µM
About 2,100 (0.66%) of roughly 320,000 compounds were called active. Another 53% or so got no clear call; they are omitted. Calls come from the whole dose curve; as a rule, active = well fitted inhibition curve with a large enough effect in the signal ratio, with a control signal flat (not every such curve was filed as active); inconclusive = small, poorly fitted or top-dose-only effect, or effect the other way, or a change in a side signal; inactive = flat fitted curve, though single readings scatter; the % refers to the signal ratio. The entries come from a sample that favours actives as a whole.
Labels: yes (1) for active, no (0) for inactive

compound	qualitativeLabel
Cc1cccc2nc(CSc3nc4ccccc4[nH]3)cn12	no (0)
O=S(=O)(/N=C(/Nc1ccccc1F)c1ccccc1)c1ccccc1	no (0)
Cc1ccc(-c2csc3ncnc(SCC(=O)c4ccc5c(c4)OCCO5)c23)cc1	yes (1)
COc1cc(/C=C2\CC/C(=C\c3ccc(OCCO)c(OC)c3)C2=O)ccc1OCCO	yes (1)
CC(C)N(Cc1nc(-c2ccccc2)no1)C(=O)C(C)(C)C	no (0)
Cc1ccccc1NC(=O)c1sc(Cl)nc1C	no (0)
COc1ccc(-c2cc(C(=O)N3CCN(c4ccccc4F)CC3)c3ccccc3n2)c(OC)c1	yes (1)
COc1ccc(-c2cc(C(=O)N3CCN(c4ncccn4)CC3)c3ccccc3n2)c(OC)c1	no (0)
CCc1ccc(S(=O)(=O)/N=C2\C=C(Nc3ccc(O)cc3)C(=O)c3ccccc32)cc1	no (0)
Cc1nc(Cl)sc1C(=O)Nc1cccc(Cl)c1	no (0)
Cc1ncsc1C(=O)Nc1cccc(C(F)(F)F)c1	no (0)
COc1ccc(C(=O)O)cc1S(=O)(=O)Nc1cc(Cl)ccc1N1CCOCC1	no (0)
COc1ccc(C(C(=O)NCC2CCCO2)N(Cc2cccs2)C(=O)c2snc(C(N)=O)c2N)cc1OC (stereo not drawn)	no (0)
O=C(Nc1cccc(C(F)(F)F)c1)c1sc(Cl)nc1C(F)(F)F	yes (1)
Cc1ccc(-c2csc3ncnc(SCC(=O)NCc4ccc5c(c4)OCO5)c23)cc1	no (0)
CCN1CCN(Cc2ccc(NC(=O)c3ccc(C)c(NC(=O)c4ccc5n[nH]nc5c4)c3)cc2C(F)(F)F)CC1	no (0)
COc1ccc(/C=C2\Cc3ccccc3C2=O)cc1OC	no (0)
CC(=O)Nc1ccc(NC2=CC(=O)c3ccccc3C2=O)cc1	no (0)
CN1CCc2nc(NC(=O)c3cccc(S(=O)(=O)N4CCc5ccccc54)c3)sc2C1	no (0)
CCN1CCN(Cc2ccc(NC(=O)c3ccc(C)c(NC(=O)c4ccnnc4)c3)cc2C(F)(F)F)CC1	no (0)
NC(=O)c1ccc(Oc2ccc(Cl)cc2)c([N+](=O)[O-])c1	no (0)
NC(=O)c1ccc(Oc2ccc3c(c2)CCC3)c([N+](=O)[O-])c1	yes (1)
O=C(CSc1ccc2ccccc2n1)NCc1ccc2c(c1)OCO2	no (0)
CCCS(=O)(=O)C/C(N)=N/OC(=O)c1ccccc1Cl	no (0)
O=C(C1=C[C@@H](c2coc3ccccc3c2=O)C[C@@H](OCCCCO)O1)N1CCN(Cc2ccc3c(c2)OCO3)CC1	no (0)
COc1cccc(Oc2cn[nH]c2-c2ccc(OCC(=O)NN)cc2O)c1	no (0)
CC(C)COc1ccccc1C(=O)NC(CO)C(=O)O (stereo not drawn)	no (0)
CC1(C)C2CC[C@]1(C)C(=O)N(CCCCN1CCN(c3ccccn3)CC1)C2=O	no (0)
CC(C)(C)c1ccc(S(=O)(=O)/N=C2\C=C(NS(=O)(=O)c3ccccc3)C(=O)c3ccccc32)cc1	no (0)
CCOc1ccccc1C(=O)NC(CO)C(=O)O (stereo not drawn)	yes (1)
COc1ccc(/C=C2\CCc3ccccc3C2=O)cc1O	no (0)
Cn1nc(-c2ccccc2)c(CO)c1Oc1cccc(C(F)(F)F)c1	no (0)
CC(=O)c1cccc(NC(=O)c2sc(Cl)nc2C)c1	no (0)
COc1cc(C(=O)Nc2cccc(-c3nc4ccccc4o3)c2C)cc(OC)c1OC	no (0)
CCc1nnc(NC(=O)Cc2ccc(OC)c(OC)c2)s1	no (0)
CCN1CCN(C(CNS(=O)(=O)c2ccc(Br)cc2)c2cccnc2)CC1 (stereo not drawn)	no (0)
COCCNC(=O)CN1C(=O)NC2(CCCc3cc(OC)ccc32)C1=O (stereo not drawn)	no (0)
O=C(Nc1nnc(-c2cccs2)o1)C1CC1	no (0)
COc1cc(NC(=O)c2ccco2)c(C(=O)O)cc1OC	no (0)
CCOc1ccc(C(C(=O)NCC2CCCO2)N(Cc2cccs2)C(=O)c2snc(C(N)=O)c2N)cc1 (stereo not drawn)	yes (1)
Cc1ccc(S(=O)(=O)N2CCOCC2)cc1NC(=O)COC(=O)c1cnc(Cl)c(Cl)c1	no (0)
Cc1cccc(NC(=S)NCC(c2cccnc2)N2CCOCC2)c1 (stereo not drawn)	no (0)
COC(=O)c1cc(OC)c(OC)cc1NC(=S)NC(=O)c1ccco1	yes (1)
